Molecular target: PAR2 (HT-29 cells) (Homo sapiens)
Construct: host or cells: HT-29
Sequence (P55085 26-397): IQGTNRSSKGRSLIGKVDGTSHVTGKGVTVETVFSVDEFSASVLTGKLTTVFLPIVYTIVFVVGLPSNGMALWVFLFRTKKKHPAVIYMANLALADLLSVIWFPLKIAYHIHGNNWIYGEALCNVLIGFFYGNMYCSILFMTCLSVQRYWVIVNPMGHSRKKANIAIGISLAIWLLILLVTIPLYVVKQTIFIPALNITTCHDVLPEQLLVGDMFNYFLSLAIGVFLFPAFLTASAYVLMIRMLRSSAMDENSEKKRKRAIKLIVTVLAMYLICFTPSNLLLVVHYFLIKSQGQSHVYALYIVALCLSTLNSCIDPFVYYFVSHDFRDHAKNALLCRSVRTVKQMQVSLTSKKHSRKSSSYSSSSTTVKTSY
Assay: Ca FLIPR TETRA assay, ANTAGONIST mode, activator 8 μM SLIGKV
Format: cell-based
Conditions: HT-29 cells; activator 8 μM SLIGKV; Method A: maximal concentration of antagonist 0.1, 1 or 2 μM
Metric Name: IC50
Your answer should be a number followed by the unit of measure.

Some compounds with recorded IC50:
>>> print(df.to_string())
                                   compound   value
0  CC(C)(C)c1cc(-c2ccc(Cl)c(F)c2)nc2cc(C(=O)N3CCN(C(=O)CC4(C(=O)O)CCC4)CC3(C)C)oc12  0.2 nM
1  CC1(C)CCC(c2cc(C(C)(C)C)c3oc(C(=O)N4CCN(C(=O)CC5(C(=O)O)CCC5)CC4(C)C)cc3n2)CC1  0.3 nM
2  Cc1ccc(N2CCN(C(=O)c3cc4nc(C5CCC(C)(C)CC5)cc(C(C)(C)C)c4o3)C(C)(C)C2)nc1-c1nnn[nH]1  0.7 nM
3  Cc1ccc(C(=O)O)nc1C1CCN(C(=O)c2cc3nc(-c4ccc(Cl)cc4)cc(C(C)(C)C)c3o2)C(C)(C)C1 (stereo not drawn)  0.6 nM
4  Cn1cnnc1N1CCN(C(=O)c2cc3nc(-c4ccc(Cl)cc4)cc(C(C)(C)C)c3o2)C(C)(C)C1   14 nM

Then this compound:
Consider the compound shown here: `CC(C)[C@H](CC(=O)O)C(=O)N1CCN(C(=O)c2cc3nc(-c4ccc(Cl)c(F)c4)cc(C(C)(C)C)c3o2)C(C)(C)C1` What is its recorded IC50?
3.6 nM
